- System under test: T1, cynomolgus CD3 (cynomolgus (Macaca fascicularis), UniProt Q95LI5 22-198; Q95LI8 22-171; Q95LI7 23-181)
- T1 construct: whole, on cells; composition of the 'mix' not defined; also called cynoCD3
- T1 sequence (Q95LI5 22-198, chain 1 of 3): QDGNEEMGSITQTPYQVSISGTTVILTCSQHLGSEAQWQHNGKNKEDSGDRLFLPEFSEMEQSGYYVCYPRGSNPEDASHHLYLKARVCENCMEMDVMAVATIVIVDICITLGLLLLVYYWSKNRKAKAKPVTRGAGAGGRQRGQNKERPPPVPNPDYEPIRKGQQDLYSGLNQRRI
- T1 sequence (Q95LI8 22-171, chain 2 of 3): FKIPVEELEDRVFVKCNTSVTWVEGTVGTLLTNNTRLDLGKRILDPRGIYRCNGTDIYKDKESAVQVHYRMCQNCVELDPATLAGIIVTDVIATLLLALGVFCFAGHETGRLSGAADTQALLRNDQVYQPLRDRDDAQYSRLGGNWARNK
- T1 sequence (Q95LI7 23-181, chain 3 of 3): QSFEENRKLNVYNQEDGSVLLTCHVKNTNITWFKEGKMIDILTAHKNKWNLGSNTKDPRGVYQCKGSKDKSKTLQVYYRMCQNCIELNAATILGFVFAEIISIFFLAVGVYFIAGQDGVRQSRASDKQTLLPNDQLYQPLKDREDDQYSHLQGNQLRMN
- Run description: FACS on 293F-cynoCD3mix cells; also: test concentration or dose not given here
Measured property: FACS MFI (MFI)
Answers are plain numbers, in MFI.

Solved entries (count: 2):
query: I am curious: what FACS MFI value has been reported for 127E2D3 (antibody, V domains shown, mouse monoclonal (hybridoma) antibody) VH: QVQLQQPGTELVKPGASVKLSCKASGYTFTSYWMHWVKQRPGEGLEWIGNIYPGSSSINYNEKFKSKATLTVDKSSSTAYMQLSSLTSEDSAVYYCARDRSSQYYFDYWGQGTTLTVSS VL: DIVMSQSPSSLAVSAGEKVTMSCKSSQSLLNSRTRKNYLAWYQQKPGQSPKLLIYWASTRESGVPDRFTGSGSGTDFTLTISSVQAEDLAVYYCTQSYNLRTFGGGTKLEIK ?
result: 1920

query: Look at this binder and give its reported FACS MFI. 126A11A4 (antibody, V domains shown, mouse monoclonal (hybridoma) antibody) VH: QVQLQQPGTELVKPGASVKLSCKASGYTFTSYWMHWVKQRPEQGLEWIGNINPSNGDTNYNEKFKSKATLTVDKASNTAYMQLSSLTSEDSAVYYCGRDRSSQYYFDYWGQGTTLTVSS VL: DIVMSQSPSSLAVSAGEKVTMSCKSSQSLLNSRTRKNYLAWYQQKPGQSPKLLIYWASTRESGVPDRFTGSGSGTDFTLTISSVQAEDLAVYFCKQSFILRTFGGGTKLEIK
result: 2220

Please look at the following binder next.
query: For the binder 147E11E2 (antibody, V domains shown, mouse monoclonal (hybridoma) antibody) VH: QVQLQQPGTELVKPGTSVKLSCKASGYTFTSYWMHWVKQRPGQGLEWIGNINPSNGATNYNEKFKSKATLTVDKSSSTAYMQLSSLTSEDSAVYYCARDRSSQYYFDYWGQGTTLTVSS VL: DIVMSQSPSSLAVSAGEKVTMSCKSSQSLLNSRSRKNYLAWYQQKPGQSPKLLIYWASTRESGVPDRFTGSGSGTDFTLTISSVQAEDLAVYYCTQSYTLRTFGGGTKLEIK , what FACS MFI is on record?
result: 2530

Values compiled from patent US20250223358A1.
